# SYSTEM: T1, commercial, recombinant extracellular domain of human BAFF-R (human, UniProt Q96RJ3 1-78)
# T1 construct: extracellular domain
# ASSAY_SUMMARY: Biacore analysis; antibody as loading sample, recombinant human BAFF-R ECD as sample
pKd: −log10 of the molar value.
METRIC_NAME: pKd

>>> numeric_value("humanized C90 variant HC3 + LC2 (antibody, V domains shown, also called Humanized HC3 + LC2; Hu90 HC-3 with Hu90 LC-2) VH: EVQLQESGPGLVKPSETLSLTCSVSGDSITSGYWNWIRQPPGKGLEYIGYISYSGSTYYNPSLKSRVTISRDTSKNQYSLRLSSVTAADTALYYCASPNYPFYAMDYWGQGTRVTVSS VL: DIVLTQSPATLSLSPGERATLSCRASESVDNYGISFMNWFQQKPGQAPRLLIYAASNRATGIPARFSGSGSGTDFTLTISSLEPEDFAVYYCQQSKEVPWTFGGGTKVEIKR")
8.51
